assay: Cytotoxic activity on human cell lines; format: cell-based; details: A549 lung carcinoma cells, mean value of three replicates
endpoint-name: IC50
The number alone won't do; follow it with the unit.

Here is how some molecules turned out for IC50.
molecule	IC50
Cc1nc(CC(C)C)c(=O)[nH]c1C(C)C	383 µM
CC[C@H](C)c1[nH]c(=O)c(CC(C)C)nc1C	145 µM

Query block: What value of IC50 has been reported for the following molecule? CC(=O)O[C@@]12CO[C@@H]1C[C@H](O)[C@@]1(C)C(=O)[C@H](O)C3=C(C)[C@@H](OC(=O)[C@H](O)[C@@H](NC(=O)OC(C)(C)C)c4ccccc4)C[C@@](O)([C@@H](OC(=O)c4ccccc4)[C@H]21)C3(C)C [Docetaxel, reference compound]
Result block: 33.1 µM
